measurement_protocol: Human hepatocyte stability assay
Format: in vitro ADME
Set-up: dose or concentration left out as unconfirmed
condition_set: human, hepatocytes, human hepatocytes; read-out: t1/2 hepatocytes
parameter: half-life (min)
I only need the number, in min, no unit after it.

Oc1ccc(Br)c2c1C(c1cccc3c1OCO3)NCC2 (centres unmarked) [Compound 35]    78.6

For the next question, use this compound.
Exam item: Look at this compound and give its reported half-life. Oc1ccc(Br)c2c1C(Cc1ccc3c(c1)OCO3)NCC2 (centres unmarked) [Compound 28]
Marked response: 23.2

###

Tested on: M. bovis BCG Pasteur
measurement_protocol: microbe, parasite or virus in culture
Type: cell-based
condition_set: Mycobacterium tuberculosis variant bovis BCG, BCG, read-out: MIC M. bovis BCG, SPOTi, value in square brackets
Measured MIC accompanies every entry in the list below.

In the examples that follow, each entry is paired with its recorded MIC.
Oc1cc2c(cc1O)[C@@H](O)CNC2c1cccc2c1OCO2 (stereo partly drawn)    > 332 µM
OC[C@@H](O)[C@@H]1NCCc2cc(O)c(O)cc21    > 444 µM
Oc1cc2c(cc1O)C(c1cncc3ccccc13)NCC2 (stereo not drawn)    > 342 µM
O=C(O)[C@@H]1Cc2cc(O)c(O)cc2C(Cc2ccc3c(c2)OCO3)N1 (stereo partly drawn)    > 291 µM
CO[C@H]1/C=C/O[C@@]2(C)Oc3c(C)c(O)c4c(O)c(c(/C=N/N5CCN(C)CC5)c(O)c4c3C2=O)NC(=O)/C(C)=C\C=C\[C@H](C)[C@H](O)[C@@H](C)[C@@H](O)[C@@H](C)[C@H](OC(C)=O)[C@@H]1C [Rifampicin, reference compound]    0.061 µM

Exam item: Look at this compound and give its reported MIC. Oc1cccc(CC2NCCc3cc(O)c(O)cc32)c1 (stereo not drawn)
Marked response: > 369 µM

Exam item: Look at this compound and give its reported MIC. Oc1ccc2c(c1)CCNC2Cc1ccccc1 (stereo not drawn)
Marked response: 418 µM

Exam item: Look at this compound and give its reported MIC. O=C(O)[C@@H]1Cc2cc(O)c(O)cc2[C@@H](Cc2ccccc2)N1
Marked response: > 334 µM

Exam item: Look at this compound and give its reported MIC. Nc1ccc2c(c1)CCNC2Cc1ccccc1 (stereo not drawn)
Marked response: > 420 µM
